Substrate: COC(=O)[C@@H]1[C@H](C(=O)OC)N(Cc2ccccc2)C(=O)N1Cc1ccccc1
assay: HPLC of biotin monomethyl ester, Michaelis-Menten fit
Assay type: biochemical, Microbacterium aurantiacum
condition-summary: pH 8.0, 0.05 M PBS, 30 °C, substrate 0.1 to 10 mM
The following proteins are listed with their measured kcat values.
Answer in s⁻¹, number only, no unit symbol.

EstSIT01 (Microbacterium aurantiacum; E301P) (protein) MTLFDGITSRIVDTDRLTVNILERAADDPQTPPDRTVVFVHGNVSSALFWQEIMQDLPSDLRAIAVDLRGFGGSEHAPVDATRGVRDFSDDLHATLEALDIPVAHLVGWSMGGGVVMQYALDHPVLSLTLQSPVSPYGFGGTRRDGSRLTDDDAGCGGGGANPDFIQRLIDHDTSDDAQTSPRSVFRAGYVASDYTTDHEDVWVESMLTTSTADGNYPGDAVPSDNWPGFAAGRHGVLNTMAPQYFDVSGIVDLAEKPPILWIHGTADAIVSDASFYDLNYLGQLGIVPGWPGEDVAPAQPMVSQTRDVLGRYAAGGGTVTEVAVEGAGHSAHLERPAVFRHALLEIIGYVGAAADPAPPTEAIIIRSAD :: 5.1
EstSIT01 (Microbacterium aurantiacum; E301P/G215A/G293A) (protein) MTLFDGITSRIVDTDRLTVNILERAADDPQTPPDRTVVFVHGNVSSALFWQEIMQDLPSDLRAIAVDLRGFGGSEHAPVDATRGVRDFSDDLHATLEALDIPVAHLVGWSMGGGVVMQYALDHPVLSLTLQSPVSPYGFGGTRRDGSRLTDDDAGCGGGGANPDFIQRLIDHDTSDDAQTSPRSVFRAGYVASDYTTDHEDVWVESMLTTSTADANYPGDAVPSDNWPGFAAGRHGVLNTMAPQYFDVSGIVDLAEKPPILWIHGTADAIVSDASFYDLNYLGQLGIVPGWPAEDVAPAQPMVSQTRDVLGRYAAGGGTVTEVAVEGAGHSAHLERPAVFRHALLEIIGYVGAAADPAPPTEAIIIRSAD :: 6.3
EstSIT01 (Microbacterium aurantiacum; E301P/G215A) (protein) MTLFDGITSRIVDTDRLTVNILERAADDPQTPPDRTVVFVHGNVSSALFWQEIMQDLPSDLRAIAVDLRGFGGSEHAPVDATRGVRDFSDDLHATLEALDIPVAHLVGWSMGGGVVMQYALDHPVLSLTLQSPVSPYGFGGTRRDGSRLTDDDAGCGGGGANPDFIQRLIDHDTSDDAQTSPRSVFRAGYVASDYTTDHEDVWVESMLTTSTADANYPGDAVPSDNWPGFAAGRHGVLNTMAPQYFDVSGIVDLAEKPPILWIHGTADAIVSDASFYDLNYLGQLGIVPGWPGEDVAPAQPMVSQTRDVLGRYAAGGGTVTEVAVEGAGHSAHLERPAVFRHALLEIIGYVGAAADPAPPTEAIIIRSAD :: 5.4

Request: Find the measured kcat of EstSIT01 (Microbacterium aurantiacum) (protein) MTLFDGITSRIVDTDRLTVNILERAADDPQTPPDRTVVFVHGNVSSALFWQEIMQDLPSDLRAIAVDLRGFGGSEHAPVDATRGVRDFSDDLHATLEALDIPVAHLVGWSMGGGVVMQYALDHPVLSLTLQSPVSPYGFGGTRRDGSRLTDDDAGCGGGGANPDFIQRLIDHDTSDDAQTSPRSVFRAGYVASDYTTDHEDVWVESMLTTSTADGNYPGDAVPSDNWPGFAAGRHGVLNTMAPQYFDVSGIVDLAEKPPILWIHGTADAIVSDASFYDLNYLGQLGIVPGWPGEDVAPAQEMVSQTRDVLGRYAAGGGTVTEVAVEGAGHSAHLERPAVFRHALLEIIGYVGAAADPAPPTEAIIIRSAD and report it.
Response: 7.8
